observable: melting point

Some solved cases for reference:
- compound: "O=[N+]([O-])c1cccc(Cn2c(-c3ccc4c(c3)OCO4)nc3ccccc32)c1"
  melting point: "70.2 to 73 °C"
- compound: "CC(C)(C)c1ccc(S(=O)(=O)N2c3ccccc3C[C@H]2C(=O)NCc2ccc(C(=O)O)cc2)cc1"
  melting point: "105 to 120 °C"
- compound: "CC(C)(CO)NC(=O)c1cc(F)c(F)cc1F"
  melting point: "114 to 116 °C"
- compound: "COc1cc(-c2c(-c3ccc(F)cc3)nc3ccc(N4CCN(C)CC4)nn23)ccn1"
  melting point: "189 to 194 °C"

Please look up its melting point: COC(=O)c1cc(C)sc1NC(=O)C(C)C
63 to 65 °C

Please look up its melting point: C#CCn1c(-c2cccnc2)c(C)c2ccccc21
104 to 105 °C

Please look up its melting point: Cc1cc(C)c2[nH]c(C(=O)O)cc2c1
254 to 256 °C

* * *

Reported melting point values are given for each entry in this list.

Some solved cases for reference:
- molecule: "COC(=O)C=Cc1cc2c(nc1C)C(=Cc1ccccc1)CCC2"
  melting point: "121 to 123 °C"
- molecule: "O=[N+]([O-])c1ccc(-c2nc(-c3cccnc3)no2)cc1"
  melting point: "163 to 166 °C"
- molecule: "Cn1c(=O)c2c(N)ccnc2n(C)c1=O"
  melting point: "233 to 235 °C"
- molecule: "Cc1nn(C)cc1C(=O)Nc1cccc2c1CCC2(C)C"
  melting point: "147 °C"
- molecule: "CC(=O)c1ccc(C(=O)N2Cc3cccn3Cc3ccccc32)cc1"
  melting point: "135 to 137 °C"

Switching to the query record.
Please look up its melting point: COc1cc2c(cc1OC)C(C)(CCCCl)OCC2 (stereo unspecified)
77 to 79 °C

* * *

Reported melting point values are given for each entry in this list.

Some solved cases for reference:
- molecule: "COC(=O)c1cccc(Cn2c(C(=O)Nc3nc(-c4cc(OC)c(C)cc4OC)c(CCC4CCCCC4)s3)cc3cc(C)cc(C)c32)c1"
  melting point: "219 to 220 °C"
- molecule: "COc1ccc(C(CC(=O)Nc2ccc(NC(=O)Nc3ccccc3C)cc2)NC(=O)c2ccc(C(=O)O)cc2)cc1OC (centres undefined)"
  melting point: "166 °C"
- molecule: "NS(=O)(=O)c1c(Cl)nc2n1CCS2(=O)=O"
  melting point: "246 to 247 °C"
- molecule: "COc1ccc(CNc2n[nH]cc2C#N)cc1OC1CCCC1"
  melting point: "159 to 160 °C"

Please look up its melting point: CCOC(=O)C(Cc1cccc(OCC(F)(F)C(F)F)c1)C(=O)c1ccc(F)cc1 (centres undefined)
55 to 56 °C

Please look up its melting point: COC(=O)c1cc(OC)c(OCc2ccccc2)cc1[N+](=O)[O-]
104 to 105 °C

* * *

Reported melting point values are given for each entry in this list.

Please look up its melting point: Cc1ccc(S(=O)(=O)OC2=COC2)cc1
86 to 88 °C

Please look up its melting point: C[C@H](NP(=O)(Cc1ccccc1)Cc1ccccc1)C(=O)N1CCC[C@H]1C(=O)N[C@H](C)C(=O)OCc1ccccc1
82 to 85 °C

Please look up its melting point: CON(C(=O)Cc1nc2ccc(Cl)cc2o1)c1ccccc1
139 °C

Please look up its melting point: Nc1cc(=O)n(Cc2ccc3c(c2)OCO3)[nH]1
218 °C

Please look up its melting point: CC(N)=CC(=O)CS(=O)(=O)NC(C)C
119 to 121 °C

Please look up its melting point: Oc1ccc2sc3ccccc3c2c1
152 to 155 °C

* * *

observable: melting point

Please look up its melting point: CON=Cc1sc(-c2ccc(O)cc2)c(C)c1-c1ccc(O)cc1
219 to 225 °C

Please look up its melting point: CSC1C(=O)Nc2ccc(Oc3ccc(F)c(C(F)(F)F)c3Cl)cc21 (configuration not stated)
137 to 142 °C

Please look up its melting point: O=C(O)c1c(-c2cnccn2)ssc1=S
225 °C

Please look up its melting point: CNC(=S)NS(=O)(=O)c1cc(CCNC(=O)/C=C/c2cccs2)ccc1OCCc1ccccc1
74 °C

* * *

observable: melting point

Please look up its melting point: CC(C)CCN1C(=O)C(NC(=O)Oc2cccc(N(C)C)c2)C(=O)N(c2ccccc2)c2cc(F)ccc21 (centres undefined)
229 to 230 °C

Please look up its melting point: COc1ccc(CN2C(=O)c3c(-c4ccccc4Cl)cc4c(c3C2=O)c2cc(OC)ccc2n4CCC(O)CO)c(OC)c1 (centres undefined)
126 to 131 °C

Please look up its melting point: CC(C)CC[C@@H]1[C@H](c2ccccc2)OC(=O)N1CCCN1CCCCC1 (racemic)
111 to 112 °C

Please look up its melting point: CCn1cc(C(=O)O)c(=O)c2cc(F)c(N3CCC3CN)nc21 (centres undefined)
198 to 200 °C

* * *

observable: melting point

Please look up its melting point: CN(C(=O)c1ccnc(Cl)c1)c1ccccc1N1CCN(C(=O)OC(C)(C)C)CC1
59 to 61 °C

Please look up its melting point: CCN(Cc1ccccc1)C(=O)Cc1c(-c2ccc(Cl)c(Cl)c2)nc2cc(C)ccn12
180 to 182 °C

* * *

Reported melting point values are given for each entry in this list.

Some solved cases for reference:
- compound: "CC(=O)c1ccc(-c2ccccc2F)cc1"
  melting point: "84.5 to 86.5 °C"
- compound: "COc1cc2c(cc1O)CCN(Cc1cccnc1)C2"
  melting point: "165 to 166 °C"
- compound: "COc1cc2c(cc1OC)N(C(=O)c1ccc(-c3ccccc3C(F)(F)F)c(C)c1)Cc1ccc(C(=O)N(CCO)CCO)n1C2"
  melting point: "130 to 132 °C"
- compound: "FC(F)(F)c1cccc(N2CCN(Cc3n[nH]c4c(Cl)cccc34)CC2)c1"
  melting point: "133 to 134 °C"

Please look up its melting point: O=c1c(Cl)c(OCc2ccc(Cl)cc2)cnn1-c1ccc(Cl)cc1F
167 to 168 °C

* * *

Reported melting point values are given for each entry in this list.

- molecule: "CCSC(=S)N1Cc2[nH]c3ccccc3c2CC1C(=O)O (stereo not given)"
  melting point: "177 to 178 °C"
- molecule: "CCOC(=O)c1ccc(C=C2C(=O)COC2=O)s1"
  melting point: "204 to 206 °C"
- molecule: "O=C(O)CCN1CCN(c2cccc(C(F)(F)F)c2)CC1"
  melting point: "228 to 230 °C"

Please look up its melting point: CC(=O)N(C)c1ccc(N(CCCCN(c2ccc(N(C)C(C)=O)cc2)S(=O)(=O)c2ccccc2)S(=O)(=O)c2ccccc2)cc1
235 °C

Please look up its melting point: O=C(O)CCCN1C(=O)c2ccc(C(=O)O)cc2C1=O
218 to 220 °C

Please look up its melting point: CC(C)=COc1ccc2c(C)cc(=O)oc2c1C(=O)C=Cc1cccnc1
156 to 157 °C

Please look up its melting point: COc1c(Cl)cc(Cn2c(S)nc3ccccc32)cc1Cl
217 to 218 °C

Please look up its melting point: CCCn1nc(O)c2cc(Cl)c(Cl)cc2c1=O
223 °C

Please look up its melting point: COc1ccc(C(=O)Nc2ccc3ccc(Oc4ccccc4)nc3n2)cn1
115 to 120 °C

Please look up its melting point: CCOC(=O)CCNC=C(C(=O)OCC)C(=O)c1cc(F)c(Cl)c([N+](=O)[O-])c1Cl
107 to 108 °C

Please look up its melting point: CC(n1cnc2cc(I)ccc2c1=O)C(O)(Cn1cncn1)c1ccc(F)cc1F (stereo not given)
155 to 156 °C

Please look up its melting point: CCOC(=O)/C=C1\CCOc2ccc(N)cc21
97 °C

* * *

Reported melting point values are given for each entry in this list.

- compound: "COC(=O)CCCCC(=O)Nc1ccc2c3c(n(CCCNC(=O)OC(C)(C)C)c(=O)c2c1)-c1ccccc1C3=O"
  melting point: "143 to 145 °C"
- compound: "CC(C)CC1(C(N)C(=O)OC(C)(C)C)CCN(CCc2ccccc2)C1=O (stereo not given)"
  melting point: "111 to 113 °C"
- compound: "N#Cc1cncc(C2OC(CO)C(O)C2O)c1 (stereo not given)"
  melting point: "169 to 171 °C"
- compound: "O=C(Nc1ccc(-c2ncc(-c3ccc(NC(=O)C4CCCCCC4)cc3)[nH]2)cc1)c1ccc(Cl)c(Cl)c1"
  melting point: "304 to 306 °C"

Please look up its melting point: CC(C)(C)OC(=O)COc1ccccc1C=O
68.6 °C

Please look up its melting point: CC(C)(C)NC(=O)c1nn(-c2ccc(Br)cc2)c2c1[C@@H]1CC[C@H]2C1
148 to 149 °C

Please look up its melting point: CCN1C(=O)C(C)(C)C(=O)N(C)c2cc(OCCCn3c(=O)c(Br)cc4ccccc43)ccc21
168 to 169 °C

Please look up its melting point: C=CCNc1nc(NC(=O)N2CCCC2)c2scc(C)c2n1
98 to 101 °C

Please look up its melting point: CCCCCCOc1c(Br)ccc2c(OCCCCCC)c(Br)ccc12
41 to 43 °C

Please look up its melting point: COC(=O)c1cc(F)c(N2CCC(NC(C)=O)C2)nc1Nc1ccc(F)cc1F (stereo not given)
199 to 200 °C

Please look up its melting point: CCN(CC)CCNC(=O)c1cnc2ccc(I)cc2c1Cl
76 to 78 °C

Please look up its melting point: CC(=O)OC1CSC(Oc2cccc(-c3ccncc3)n2)C(OC(C)=O)C1OC(C)=O (stereo not given)
137 °C

Please look up its melting point: COc1cc(-c2nc(-c3ccc(N(C)C)cc3)c(C)o2)ccc1OC(C)=O
97 to 102 °C

Please look up its melting point: CCCC(C)(C)c1cc(N2CCC(C)C2=O)no1 (stereo not given)
30 to 31 °C

Please look up its melting point: COc1c(Cl)cc(-c2cc(F)c(F)cc2-c2ccc(S(N)(=O)=O)cc2)cc1Cl
146 °C

Please look up its melting point: CCCCOc1c(CNC(=O)OC(C)(C)C)n(CC(C)C)c(=O)c2ccc(C(N)=NO)cc12
209 to 210 °C
